test system: P. vulgaris No. 33; assay: in vitro antibacterial activity, agar plate dilution method (MIC); assay type: cell-based; details: Proteus vulgaris, NO.33, 16 h, read-out: Minimum Inhibitory Concentration (MIC), *P. vulgaris No. 33, lactamase-producing strain; 10^6 CFU/ml
property.name: MIC (µg/mL)
Give bare numbers, in µg/mL.

Field: example entries. Status: answers known.
{"compound": "Nc1nc(C(=NOCC(=O)O)C(=O)NC2C(=O)N3C(C(=O)O)=C(CSc4nc(-c5ccc(O)c(O)c5)cs4)CSC23)cs1 (stereo not drawn) [Ex. 43]", "property.name": "MIC", "experimental.result": 0.05}
{"compound": "Nc1nc(C(=NOC2(C(=O)O)CC2)C(=O)NC2C(=O)N3C(C(=O)O)=C(CSc4nc(-c5ccc(O)c(O)c5)c(CC(=O)O)s4)CSC23)cs1 (stereo not drawn) [Example 60 (I)]", "property.name": "MIC", "experimental.result": 0.1}

In: Please report MIC for the following compound: CC(C)(O/N=C(\C(=O)N[C@@H]1C(=O)N2C(C(=O)O)=C(CSc3ncc(-c4ccccc4)o3)CS[C@H]12)c1csc(N)n1)C(=O)O [compound 22, reference compound]
Out: 0.78
